Target: T1, human GARP (glycoprotein A repetitions predominant, LRRC32) on the cell surface (human, UniProt Q14392 20-662)
T1 construct: whole, on cells; also called hGARP; free GARP
T1 sequence (looked up): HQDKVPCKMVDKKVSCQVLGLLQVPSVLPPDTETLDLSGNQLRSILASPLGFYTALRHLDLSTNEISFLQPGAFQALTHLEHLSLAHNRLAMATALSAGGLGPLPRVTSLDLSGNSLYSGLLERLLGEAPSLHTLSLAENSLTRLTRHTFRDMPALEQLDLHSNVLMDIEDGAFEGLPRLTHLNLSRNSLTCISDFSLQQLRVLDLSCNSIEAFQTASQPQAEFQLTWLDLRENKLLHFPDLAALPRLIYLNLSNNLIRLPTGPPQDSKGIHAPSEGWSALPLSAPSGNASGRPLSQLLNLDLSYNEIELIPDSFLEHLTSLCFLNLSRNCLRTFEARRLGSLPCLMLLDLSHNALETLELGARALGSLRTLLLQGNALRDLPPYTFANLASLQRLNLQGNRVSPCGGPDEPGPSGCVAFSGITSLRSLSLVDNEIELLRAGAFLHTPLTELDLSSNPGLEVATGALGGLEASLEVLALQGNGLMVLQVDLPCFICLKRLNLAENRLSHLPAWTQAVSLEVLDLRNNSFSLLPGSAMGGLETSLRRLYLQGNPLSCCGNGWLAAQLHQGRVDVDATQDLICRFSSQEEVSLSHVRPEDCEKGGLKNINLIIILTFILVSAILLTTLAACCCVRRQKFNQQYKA
Experiment: FACS, Ag(+) cells, 0 ug/ml antibody (blank)
The entries below are paired with their reported MFI.
Only the number, expressed in MFI, is required.

Sample records with MFI:
[[record]]
binder = "huPIIO-1VH2VL2 (antibody, V domains shown, Humanized IgG from Expi293, tested as culture supernatant; also called H2L2; HuPIIO-1VH2/L2) VH: QVQLQESGPGLVKPSQTLSLTCTVSGYSITSDYAWNWIRQFPGNKLEWMGYISYSGSTSYTPSLKSRITISRDTSKNHFFLKLSSVTAADTAVYYCAKSGGDYYGSSSYWYFDVWGQGTMVTVSS VL: DIVLTQSPSSLAVSLGERVTMNCKSSQSLLNSRSQKNYLAWYQQKPGQPPKLLIYGASTRGSGVPDRFSGSGSGTDFTLTISSVQAEDVAVYYCQNDHSYPFTFGQGTKLEIKR"
experimental_endpoint = "MFI"
test_value = 9.91

[[record]]
binder = "huPIIO-1VH3VL2 (antibody, V domains shown, Humanized IgG from Expi293, tested as culture supernatant; also called H3L2) VH: DVQLQESGPGLVKPSQTLSLTCTVSGYSITSDYAWNWIRQFPGNKLEWMGYISYSGSTSYTPSLKSRITISRDTSKNHFFLKLSSVTAADTATYYCAKSGGDYYGSSSYWYFDVWGQGTTVTVSS VL: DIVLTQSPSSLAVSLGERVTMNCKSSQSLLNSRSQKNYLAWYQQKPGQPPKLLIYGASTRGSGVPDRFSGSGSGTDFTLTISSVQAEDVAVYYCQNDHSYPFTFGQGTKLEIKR"
experimental_endpoint = "MFI"
test_value = 9.91

[[record]]
binder = "huPIIO-1VH4VL3 (antibody, V domains shown, Humanized IgG from Expi293, tested as culture supernatant; also called H4L3; HuPIIO-1VH4/L3) VH: DVQLQESGPGLVKPSQTLSLTCTVSGYSITSDYAWNWIRQFPGNKLEWMGYISYSGSTSYTPSLKSRITISRDTSKNHFFLQLSSVTAEDTATYYCAKSGGDYYGSSSYWYFDVWGQGTTVTVSS VL: DIVLTQSPSSLAVSAGERVTMSCKSSQSLLNSRSQKNYLAWYQQKPGQPPKLLIYGASTRGSGVPDRFSGSGSGTDFTLTISSVQAEDVAVYYCQNDHSYPFTFGSGTKLEIKR"
experimental_endpoint = "MFI"
test_value = 9.91

[[record]]
binder = "huPIIO-1VH1VL2 (antibody, V domains shown, Humanized IgG from Expi293; also called H1L2; HuPIIO-1VH1/L2) VH: QVQLQESGPGLVKPSQTLSLTCTVSGYSITSDYAWNWIRQFPGNKLEWMGYISYSGSTSYTPSLKSRVTISRDTSKNHFSLKLSSVTAADTAVYYCAKSGGDYYGSSSYWYFDVWGQGTMVTVSS VL: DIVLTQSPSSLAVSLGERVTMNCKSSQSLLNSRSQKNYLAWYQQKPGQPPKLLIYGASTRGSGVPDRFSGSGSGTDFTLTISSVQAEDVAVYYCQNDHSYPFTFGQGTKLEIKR"
experimental_endpoint = "MFI"
test_value = 9.91


Next, consider the following binder.
Input: Can you look up the measured MFI of huPIIO-1VH2VL3 (antibody, V domains shown, Humanized IgG from Expi293, tested as culture supernatant; also called H2L3; HuPIIO-1VH2/L3) VH: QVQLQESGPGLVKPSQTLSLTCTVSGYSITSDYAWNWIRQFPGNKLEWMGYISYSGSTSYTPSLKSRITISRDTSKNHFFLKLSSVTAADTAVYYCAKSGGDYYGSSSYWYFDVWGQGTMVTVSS VL: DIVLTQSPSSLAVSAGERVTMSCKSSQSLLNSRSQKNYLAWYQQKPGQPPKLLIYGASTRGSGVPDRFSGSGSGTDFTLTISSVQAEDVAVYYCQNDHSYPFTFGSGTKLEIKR for me?
Output: 9.91

Source listed as patent US20240425571A1.
